# target system: UniProtKB Q9NWZ3
# experimental protocol: biochemical
# Assay type: biochemical
# condition context: IRAK4 enzyme, TR-FRET (HTRF), 500 μM ATP
Listed below: IC50 values for each entry.
Note: unit nM is implicit; provide only the numeric part.

Entry CNC(=O)c1cnc(-c2ccc3cc(C#N)cnn23)cc1N[C@@H]1CCC[C@@H](C(=O)NC)C1 under UniProtKB Q9NWZ3 had IC50 of 23

The measured IC50 that CC(C)(O)[C@H](F)CNC(=O)c1cnc(-c2ccc3cc(C#N)cnn23)cc1Nc1ccc(-n2nccn2)cc1 showed for UniProtKB Q9NWZ3 is 2

Here COc1cc(Nc2cc(-c3ccc4cc(C#N)cnn34)ncc2C(=O)NC[C@@H](F)C(C)(C)O)ccc1C#N was tested on UniProtKB Q9NWZ3, and its IC50 came to 15

Per the reported UniProtKB Q9NWZ3 data, Cc1ncc(C2CCC(Nc3cc(-c4ccc5cc(C#N)cnn45)ncc3C(=O)NC[C@@H](F)C(C)(C)O)CC2)o1 (some centres unmarked) [Example 644] has IC50 of 1

Value sought: IC50, system UniProtKB Q9NWZ3, item CC(=O)O[C@@H]1CCC[C@H](Nc2cc(-c3ccc4cc(C#N)cnn34)ncc2C(=O)NC[C@@H](F)C(C)(C)O)C1 . Result: 2

The molecule CNC(=O)c1cnc(-c2ccc3cc(C#N)cnn23)cc1N[C@@H]1CC[C@H](C(=O)NC)C1 , tested on UniProtKB Q9NWZ3, showed IC50 of 41

The reported IC50 value, UniProtKB Q9NWZ3, for CNC(=O)C12CCC(Nc3cc(-c4ccc5cc(C#N)cnn45)ncc3C(=O)NC[C@@H](F)C(C)(C)O)(CC1)CC2 reads 1

Reported IC50 (UniProtKB Q9NWZ3) for entry CC(C)(O)[C@H](F)CNC(=O)c1cnc(-c2ccc3cc(C#N)cnn23)cc1NC12CCC(C(=O)N3CCOCC3)(CC1)CC2 is 2

---

Listing of recorded EC50 by entry.
# Test system: TNFα
# experimental protocol: cells
# Type: cell-based, human
# condition context: Homo sapiens, Monocyte, LPS-stimulated human monocytes, TNFα content; read-out: EC50 TNF
Reply with just the number (in nM).

Known results for molecules:
Form: item CC(C)Nc1cc(-c2ccc3cc(C#N)cnn23)ncc1C(=O)NCC(F)(F)CN ; test system TNFα; EC50: 1160

Query N#Cc1cnn2c(-c3cc(NC45CCC(O)(CC4)CC5)c(C(=O)NC4CCC(NC(=O)C5CC5)CC4)cn3)ccc2c1 (stereo not drawn) on TNFα; EC50 returned: 50

Fill in: TNFα EC50 for Cc1ncc(-c2ccc(Nc3cc(-c4ccc5cc(C#N)cnn45)ncc3C(=O)NC[C@@H](F)C(C)(C)O)cc2)o1 = 96

Value (EC50, TNFα) for record Cc1ncc(Nc2cc(-c3ccc4cc(C#N)cnn34)ncc2C(=O)NC[C@@H](F)C(C)(C)O)cn1 = 107

I looked up CC(=O)N1C[C@H]2C[C@H](Nc3cc(-c4ccc5cc(C#N)cnn45)ncc3C(=O)NC[C@@H](F)C(C)(C)O)C[C@H]2C1 and its EC50 for TNFα was 100

---
EC50 on TNFα for CC(C)(O)[C@H](F)CNC(=O)c1cnc(-c2ccc3cc(C#N)cnn23)cc1NC1CCC2(CC1)COC2 is 90

EC50 value, target or system TNFα, for COCC1CCC1CNc1cc(-c2ccc3cc(C#N)cnn23)ncc1C(=O)NC[C@@H](F)C(C)(C)O (stereo partly drawn) : 264

CC(C)(O)[C@H](F)CNC(=O)c1cnc(-c2ccc3cc(C#N)cnn23)cc1N[C@H]1CC[C@@H](NC(=O)C(F)(F)F)CC1 on TNFα gives EC50 = 2220

Entry CC(C)(O)[C@H](F)CNC(=O)c1cnc(-c2ccc3cc(C#N)cnn23)cc1N[C@H]1CC[C@H](NC(=O)C2CC2)CC1 , TNFα data, EC50 value: 80

EC50 value, target or system TNFα, for CC(C)(O)[C@H](F)CNC(=O)c1cnc(-c2ccc3cc(C#N)cnn23)cc1Nc1ccccc1C#N : 720

Entry CC(C)Nc1cc(-c2ccc3cc(C#N)cnn23)ncc1C(=O)NCC(F)(F)C(C)(C)O under TNFα had EC50 of 98

Given the molecule C[C@@H](O)C(=O)N1CCC(Nc2cc(-c3ccc4cc(C#N)cnn34)ncc2C(=O)NC[C@@H](F)C(C)(C)O)CC1 and test system TNFα, the measured EC50 is 157

---

List of EC50 values.
# Test system: TNFα
# experimental protocol: cells
# Type: cell-based, human
# condition context: Homo sapiens, Monocyte, LPS-stimulated human monocytes, TNFα content; read-out: EC50 TNF
Be sure to follow the number with its unit.

EC50 measured on CNC(=O)c1cnc(-c2ccc3cc(C#N)cnn23)cc1NC(C)C = 91 nM

Record Cc1n[nH]c2cc(Nc3cc(-c4ccc5cc(C#N)cnn45)ncc3C(=O)NC[C@@H](F)C(C)(C)O)ccc12 , field EC50: 64 nM

Looking up CC(C)(O)[C@H](F)CNC(=O)c1cnc(-c2ccc3cc(C#N)cnn23)cc1Nc1cnn(-c2ccncc2)c1 , I see its EC50 listed as 26 nM

Continue with the molecule presented below.
So for COC(C)(C)[C@H](F)CNC(=O)c1cnc(-c2ccc3cc(C#N)cnn23)cc1NC12CCC(O)(CC1)CC2 , the logged EC50 turned out to be 19 nM

---

# System: TNFα
# experimental protocol: cells
# Format: cell-based, human
# condition context: Homo sapiens, Monocyte, LPS-stimulated human monocytes, TNFα by TR-FRET; read-out: EC50 TNF
In this scheme, each record receives a class according to its EC50; the ranges are I: < 60 nM; II: ≥ 60 nM and < 200 nM; III: ≥ 200 nM

Prompt: # bin label for N#Cc1cnn2c(-c3cc(NC45CCC(O)(CC4)CC5)c(C(=O)NCc4ccncc4)cn3)ccc2c1 [Example 932]
Completion: II

Prompt: Would you mind sorting CC(C)(O)[C@H](F)CNC(=O)c1cnc(-c2ccc3cc(C#N)cnn23)cc1N[C@H]1C[C@H](CNC(=O)C2(F)CC2)C1 [Example 828] into the appropriate category?
Completion: I

Prompt: Bin this entry: CC(C)(O)[C@H](F)CNC(=O)c1cnc(-c2ccc3cc(C#N)cnn23)cc1Nc1ccc2nccn2c1 [Example 974]
Completion: II

Prompt: Bin this entry: N#Cc1cnn2c(-c3cc(NC45CCC(O)(CC4)CC5)c(C(=O)NCC(=O)c4ccccc4)cn3)ccc2c1 [Example 811]
Completion: I

Prompt: Just checking, what class would you give CC(C)(O)[C@H](F)CNC(=O)c1cnc(-c2ccc3cc(C#N)cnn23)cc1NC1CC2(CNC2)C1 [Example 895] here?
Completion: III

More entries:
Prompt: Lab note: which band did COC(=O)C1(NC(=O)c2cnc(-c3ccc4cc(C#N)cnn34)cc2NC23CCC(O)(CC2)CC3)CC1 [Example 949] land in?
Completion: II

Prompt: Which band does CC(=O)N1CC[C@@H]1CNc1cc(-c2ccc3cc(C#N)cnn23)ncc1C(=O)NC[C@@H](F)C(C)(C)O [Example 892] fall in?
Completion: III

Prompt: Input COC(=O)N1CC[C@H](CNc2cc(-c3ccc4cc(C#N)cnn34)ncc2C(=O)NC[C@@H](F)C(C)(C)O)C1 [Example 900] ; output its category
Completion: II

Prompt: Determine which band this compound sits in: COC(=O)Nc1ccc(Nc2cc(-c3ccc4cc(C#N)cnn34)ncc2C(=O)NC[C@@H](F)C(C)(C)O)cn1 [Example 888]
Completion: I

Prompt: Which class is correct for the following compound? COC(=O)NC[C@@H]1CCCN1c1ccc(Nc2cc(-c3ccc4cc(C#N)cnn34)ncc2C(=O)NC[C@@H](F)C(C)(C)O)cn1 [Example 879]
Completion: III

Prompt: Field: class (EC50) — entry: CC(C)(O)[C@H](F)CNC(=O)c1cnc(-c2ccc3cc(C#N)cnn23)cc1Nc1ccc2c(c1)CN(C1COC1)C2 [Example 864]
Completion: II

Prompt: Please report the category associated with COC(=O)NC[C@H]1C[C@H](Nc2cc(-c3ccc4cc(C#N)cnn34)ncc2C(=O)NCC(=O)C(C)(C)O)C1 [Example 815] , nothing else.
Completion: I

Prompt: Band of N#Cc1cnn2c(-c3cc(NC45CCC(O)(CC4)CC5)c(C(=O)N[C@H]4CNC4=O)cn3)ccc2c1 [Example 955] ?
Completion: III

Prompt: For this compound, which bin applies? CC(C)(O)[C@H](F)CNC(=O)c1cnc(-c2ccc3cc(C#N)cnn23)cc1NCC1CNC1 [Example 905]
Completion: III

---

Each entry below lists one item and its recorded pIC50 value.
# target system: IRAK4 enzyme (Homo sapiens (Human), UniProt Q9NWZ3)
# Sequence (Q9NWZ3 whole entry): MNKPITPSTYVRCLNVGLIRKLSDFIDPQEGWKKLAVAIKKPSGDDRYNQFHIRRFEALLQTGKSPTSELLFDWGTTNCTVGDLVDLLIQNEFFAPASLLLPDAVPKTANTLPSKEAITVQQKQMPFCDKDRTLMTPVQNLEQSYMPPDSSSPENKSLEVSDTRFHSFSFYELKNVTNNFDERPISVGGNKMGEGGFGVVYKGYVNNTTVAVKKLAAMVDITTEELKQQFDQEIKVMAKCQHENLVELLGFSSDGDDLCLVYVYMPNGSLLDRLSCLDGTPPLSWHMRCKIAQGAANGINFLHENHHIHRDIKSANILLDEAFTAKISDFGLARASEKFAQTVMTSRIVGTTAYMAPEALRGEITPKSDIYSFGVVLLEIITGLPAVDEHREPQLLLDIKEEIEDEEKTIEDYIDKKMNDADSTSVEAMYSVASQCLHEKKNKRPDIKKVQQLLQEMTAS
# experimental protocol: biochemical
# Type: biochemical
# condition context: IRAK4 enzyme, TR-FRET (HTRF), 500 μM ATP
// scale note: pIC50 = -log10(conc_M); give the bare number

Short answer for CC(=O)NCC12CC(Nc3cc(-c4ccc5cc(C#N)cnn45)ncc3C(=O)NC[C@@H](F)C(C)(C)O)(C1)C2 : pIC50 was 9.00

Next:
Please fill in: pIC50 reported for CN1CCN(C(=O)NC[C@H]2C[C@H](Nc3cc(-c4ccc5cc(C#N)cnn45)ncc3C(=O)NC[C@@H](F)C(C)(C)O)C2)CC1 = 8.52

The compound CC(C)Nc1cc(-c2ccc3cc(C#N)cnn23)ncc1C(=O)Nc1cncc(N)c1 showed pIC50 equal to 8.15

The measured pIC50 associated with CC(C)(C)OC(=O)NCC12CC(Nc3cc(-c4ccc5cc(C#N)cnn45)ncc3C(=O)NC[C@@H](F)C(C)(C)O)(C1)C2 reads 8.70
